# growth per entry
- System: SF-268 CNS
- test-name: NCI-60 one-dose screen, 48 h (100 = growth as untreated, 0 = no growth, -100 = all killed)
- study-conditions: 10 µM unless noted
The panel holds about 83,000 compounds, 20% with a hit somewhere; the sample as a whole holds those more often.
Numeric answer only, unit % assumed.

molecule	measure-unit	observed
COc1cc2oc(-c3ccc(O)cc3)cc(=O)c2c(O)c1I	%	105
CC1SC(c2cccc(Oc3ccccc3)c2)N(CCc2cccs2)C1=O (stereo not drawn)	%	-5.54

Name the recorded growth for COc1cc(-c2nc(SC(C)C)nc(Nc3ccccc3C)c2C#N)cc(OC)c1OC .
106
